These data points were gathered from patent US10206909B2.

test system: SW480 colon cancer cells; experiment: Cell viability assay (CellTiter-Blue); format: cell-based; conditions: Homo sapiens, 96 h; SW480 cell viability, four days, CellTiter-Blue
Quantity Name: EC50

In the examples that follow, each entry is paired with its recorded EC50.
1. Nc1cncc(-c2ccc3[nH]nc(-c4cc5c(-c6ccncc6)ccnc5[nH]4)c3n2)c1 ... > 10 µM
2. O=C(Cc1ccccc1)Nc1cncc(-c2ccc3[nH]nc(-c4cc5c(-c6ccoc6)ccnc5[nH]4)c3n2)c1 ... > 10 µM

Query :: Entry CCCCC(=O)Nc1cncc(-c2ccc3[nH]nc(-c4cc5c(N6CCCCC6)ccnc5[nH]4)c3n2)c1 : reported EC50 = ?
Result :: 3.53 µM

Query :: Next up: FC1(F)CCN(Cc2cncc(-c3ccc4[nH]nc(-c5cc6c(-c7cccnc7)ccnc6[nH]5)c4n3)c2)C1
Result :: > 10 µM

Query :: Next up: FC1(F)CCN(Cc2cncc(-c3ccc4[nH]nc(-c5cc6cccnc6[nH]5)c4n3)c2)C1
Result :: 0.345 µM

Query :: Next up: Fc1cccc(-c2ccnc3[nH]c(-c4n[nH]c5ccc(-c6cncc(CN7CCCCC7)c6)nc45)cc23)c1
Result :: > 10 µM

Query :: Next up: CC(C)(C)C(=O)Nc1cncc(-c2ccc3[nH]nc(-c4cc5c(-c6cccc(F)c6)ccnc5[nH]4)c3n2)c1
Result :: > 10 µM

Query :: Next up: c1csc(-c2ccnc3[nH]c(-c4n[nH]c5ccc(-c6ccncc6)nc45)cc23)c1
Result :: > 10 µM

Query :: Next up: CN(C)CCNc1cc(F)cc(-c2ccnc3[nH]c(-c4n[nH]c5ccc(-c6cncc(NC(=O)c7ccccc7)c6)nc45)cc23)c1
Result :: 1.94 µM

Query :: Next up: Fc1ccccc1-c1ccnc2[nH]c(-c3n[nH]c4ccc(-c5ccccn5)nc34)cc12
Result :: > 10 µM

Query :: Next up: c1cncc(-c2ccnc3[nH]c(-c4n[nH]c5ccc(-c6ccncc6)nc45)cc23)c1
Result :: > 10 µM

Query :: Next up: c1ccc(-c2ccc3[nH]nc(-c4cc5c(N6CCCCC6)ccnc5[nH]4)c3n2)nc1
Result :: > 10 µM

Query :: Next up: Oc1cncc(-c2ccc3[nH]nc(-c4cc5c(-c6ccc(F)cc6)ccnc5[nH]4)c3n2)c1
Result :: > 10 µM

Query :: Next up: Cc1ccncc1-c1ccc2[nH]nc(-c3cc4c(N5CCCCC5)ccnc4[nH]3)c2n1
Result :: > 10 µM

Query :: Next up: CCNCc1cncc(-c2ccc3[nH]nc(-c4cc5cccnc5[nH]4)c3n2)c1
Result :: 2.81 µM

* * *

test system: SW480 colon cancer cells; assay: Cell viability assay (CellTiter-Blue); format: cell-based; conditions: Homo sapiens, 96 h; SW480 cell viability, four days, CellTiter-Blue
Quantity Name: EC50

In the examples that follow, each entry is paired with its recorded EC50.
1) c1csc(-c2ccnc3[nH]c(-c4n[nH]c5ccc(-c6cncnc6)nc45)cc23)c1 ... > 10 µM
2) c1cncc(-c2ccc3[nH]nc(-c4cc5cccnc5[nH]4)c3n2)c1 ... > 10 µM
3) O=C(Nc1cncc(-c2ccc3[nH]nc(-c4cc5c(-c6ccc(F)cc6)ccnc5[nH]4)c3n2)c1)c1ccccc1 ... > 10 µM
4) CN1CCN(c2ccnc3[nH]c(-c4n[nH]c5ccc(-c6cn[nH]c6)nc45)cc23)CC1 ... > 10 µM
5) c1csc(-c2ccnc3[nH]c(-c4n[nH]c5ccc(-c6cncc(OC7CCNCC7)c6)nc45)cc23)c1 ... > 10 µM

Query :: Entry Fc1ccc(-c2ccnc3[nH]c(-c4n[nH]c5ccc(-c6cncnc6)nc45)cc23)cc1 : reported EC50 = ?
Result :: > 10 µM

Query :: Next up: c1cc(N2CCCCC2)c2cc(-c3n[nH]c4ccc(-c5cncc(CN6CCCCC6)c5)nc34)[nH]c2n1
Result :: > 10 µM
